# System: T1, huFLT3-M227 stably expressed on Ramos cells (human, UniProt P36888 27-993)
# T1 construct: whole, on cells; also called FLT3 Mutant
# T1 sequence (P36888 27-993 T227M): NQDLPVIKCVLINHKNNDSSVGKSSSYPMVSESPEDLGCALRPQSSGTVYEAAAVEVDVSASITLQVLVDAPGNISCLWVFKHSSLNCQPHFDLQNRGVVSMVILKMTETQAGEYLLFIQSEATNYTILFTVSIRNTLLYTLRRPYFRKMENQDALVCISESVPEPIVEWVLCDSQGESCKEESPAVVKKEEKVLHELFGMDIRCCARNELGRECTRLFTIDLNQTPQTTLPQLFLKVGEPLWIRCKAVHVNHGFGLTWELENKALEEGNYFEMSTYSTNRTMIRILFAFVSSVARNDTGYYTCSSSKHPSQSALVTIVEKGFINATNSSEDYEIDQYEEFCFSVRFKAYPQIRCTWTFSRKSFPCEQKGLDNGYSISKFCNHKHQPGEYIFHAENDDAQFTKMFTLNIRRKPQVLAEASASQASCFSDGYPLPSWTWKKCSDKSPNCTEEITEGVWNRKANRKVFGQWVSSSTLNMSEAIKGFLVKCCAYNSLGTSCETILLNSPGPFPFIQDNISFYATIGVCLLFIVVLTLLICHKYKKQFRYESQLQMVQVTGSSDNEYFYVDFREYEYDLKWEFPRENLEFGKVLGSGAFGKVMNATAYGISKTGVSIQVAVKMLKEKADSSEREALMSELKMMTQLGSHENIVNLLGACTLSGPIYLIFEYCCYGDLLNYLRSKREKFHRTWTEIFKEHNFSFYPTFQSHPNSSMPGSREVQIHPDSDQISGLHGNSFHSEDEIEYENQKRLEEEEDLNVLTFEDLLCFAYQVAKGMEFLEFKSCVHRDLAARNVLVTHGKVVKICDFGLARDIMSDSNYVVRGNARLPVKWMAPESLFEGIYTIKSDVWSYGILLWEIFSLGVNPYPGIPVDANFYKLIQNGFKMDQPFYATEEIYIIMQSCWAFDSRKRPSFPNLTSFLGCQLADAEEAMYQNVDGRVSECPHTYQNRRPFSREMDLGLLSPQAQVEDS
# Measurement Protocol: FACS on cells
For each of the binders below, state its FACS geometric mean fold change over Jurkat parental.

Polypeptide No. 247 (scFv, V domains shown, scFv) VH: QVQLVQSGAEVKKPGASVKVSCKASGGTLMSYAISWVRQAPGQGLEWMGIINPRGGTTRYAQKFQGRVTMTRDTSTSTVYMELSSLRSEDTAVYYCARSEDSGYDYLDYWGQGTLVTVSS VL: EIVMTQSPATLSVSPGERATLSCRGSQSISGNYLAWYQQKPGQAPRLLIYDTSARAAGIPARFSGSGSGTEFTLTISSLQSEDFAVYYCQQYNSYPLTFGGGTKVEIKR : 2 to 10 fold
Polypeptide No. 262 (scFv, V domains shown, scFv) VH: QVQLVQSGAEVKKPGASVKVSCKASGFTFSDYGYYMHWVRQAPGQGLEWMGWMDPSSGHTGYAQRFQGRVTMTRDTSTSTVYMELSSLRSEDTAVYYCAKDIGWGAFDIWGQGTTVTVSS VL: EIVMTQSPATLSVSPGERATLSCRASQRVGNTYLAWYQQKPGQAPRLLIYDVSARASGIPARFSGSGSGTEFTLTISSLQSEDFAVYYCQQYLSPPLTFGGGTKVEIKR : 10 to 30 fold

Please find the next binder below.
Query Polypeptide No. 207 (scFv, V domains shown, scFv) VH: QVQLVQSGAEVKKPGASVKVSCKASGYTFTNYYMHWVRQAPGQGLEWMGWMNPNSGNTGYAQRFQGRVTMTRDTSTSTVYMELSSLRSEDTAVYYCAKSHYYYFYGMDVWGQGTTVTVSS VL: DIQMTQSPSSLSASVGDRVTITCQASHDISKYLNWYQQKPGKAPKLLIYAASILQSGVPSRFSGSGSGTDFTLTISSLQPEDFATYYCQQSYSTPYTFGQGTKLEIKR yields FACS geometric mean fold change over Jurkat parental of 10 to 30 fold
